# assay_method_text: Ubiquitin-Rhodamine 110 Assay for USP25 Activity, Example A-3
# Assay type: biochemical
# run_conditions: Ubiquitin-Rhodamine 110 biochemical assay, Example A-1(b); read-out: USP28 A-1(b) IC50 range
pIC50: −log10 of the molar value.
Measured pIC50, listed per entry for reference.

- Cc1nc2sc(C(=O)N[C@H]3CCc4nc(N5C[C@@H](CF)[C@H](N)C5)ccc4C3)c(N)c2cc1F [Example 507]: 5.70 to 6.70
- CCN[C@@H]1CN(c2ccc3c(n2)CC[C@H](NC(=O)c2sc4nc(C)ccc4c2N)C3)C[C@H]1COC [Example 477]: < 5.70
- CCN[C@H]1CN(c2ccc3c(n2)CC[C@H](NC(=O)c2sc4nc(C)ccc4c2N)C3)C[C@@H]1COC [Example 476]: < 5.70
- Cc1ccc2c(N)c(C(=O)N[C@H]3CCc4nc(N5CC[C@@H](N)[C@@H]5C(F)F)ccc4C3)sc2n1 [Example 478]: < 5.70

Alright, here's another molecule for you.
What does the record list as pIC50 for Cc1ccc2c(N)c(C(=O)N[C@H]3CCc4nc(N5CC[C@H](N)[C@H]5C(F)F)ccc4C3)sc2n1 [Example 479] ?
6.70 to 7.30
